Molecular target: von Hippel-Lindau disease tumor suppressor/Estrogen receptor/Cullin-2 (Homo sapiens, UniProt P03372+P40337+Q13617)
Sequence (P03372 whole entry, looked up): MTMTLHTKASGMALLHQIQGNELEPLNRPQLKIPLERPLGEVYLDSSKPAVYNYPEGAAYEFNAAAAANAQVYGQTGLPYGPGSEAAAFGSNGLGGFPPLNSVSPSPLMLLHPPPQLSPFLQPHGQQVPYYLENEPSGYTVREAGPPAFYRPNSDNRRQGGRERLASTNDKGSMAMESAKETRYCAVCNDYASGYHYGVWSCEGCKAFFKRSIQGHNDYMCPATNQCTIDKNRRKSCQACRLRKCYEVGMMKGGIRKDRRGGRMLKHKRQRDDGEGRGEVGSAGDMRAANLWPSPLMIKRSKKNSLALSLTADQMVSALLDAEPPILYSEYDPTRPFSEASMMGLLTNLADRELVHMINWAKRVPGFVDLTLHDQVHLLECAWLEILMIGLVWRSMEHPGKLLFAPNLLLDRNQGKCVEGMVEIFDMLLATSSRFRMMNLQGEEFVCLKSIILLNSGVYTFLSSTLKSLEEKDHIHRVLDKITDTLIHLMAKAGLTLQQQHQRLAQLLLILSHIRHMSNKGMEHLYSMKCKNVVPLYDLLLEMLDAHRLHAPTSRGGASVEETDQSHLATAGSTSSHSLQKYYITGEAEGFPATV
Sequence (P40337 whole entry, looked up): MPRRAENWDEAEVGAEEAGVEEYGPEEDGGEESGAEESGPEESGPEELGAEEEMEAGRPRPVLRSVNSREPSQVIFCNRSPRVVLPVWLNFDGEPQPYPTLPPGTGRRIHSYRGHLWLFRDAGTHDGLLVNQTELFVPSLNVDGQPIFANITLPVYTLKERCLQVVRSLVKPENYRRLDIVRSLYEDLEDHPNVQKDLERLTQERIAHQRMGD
Sequence (Q13617 whole entry, looked up): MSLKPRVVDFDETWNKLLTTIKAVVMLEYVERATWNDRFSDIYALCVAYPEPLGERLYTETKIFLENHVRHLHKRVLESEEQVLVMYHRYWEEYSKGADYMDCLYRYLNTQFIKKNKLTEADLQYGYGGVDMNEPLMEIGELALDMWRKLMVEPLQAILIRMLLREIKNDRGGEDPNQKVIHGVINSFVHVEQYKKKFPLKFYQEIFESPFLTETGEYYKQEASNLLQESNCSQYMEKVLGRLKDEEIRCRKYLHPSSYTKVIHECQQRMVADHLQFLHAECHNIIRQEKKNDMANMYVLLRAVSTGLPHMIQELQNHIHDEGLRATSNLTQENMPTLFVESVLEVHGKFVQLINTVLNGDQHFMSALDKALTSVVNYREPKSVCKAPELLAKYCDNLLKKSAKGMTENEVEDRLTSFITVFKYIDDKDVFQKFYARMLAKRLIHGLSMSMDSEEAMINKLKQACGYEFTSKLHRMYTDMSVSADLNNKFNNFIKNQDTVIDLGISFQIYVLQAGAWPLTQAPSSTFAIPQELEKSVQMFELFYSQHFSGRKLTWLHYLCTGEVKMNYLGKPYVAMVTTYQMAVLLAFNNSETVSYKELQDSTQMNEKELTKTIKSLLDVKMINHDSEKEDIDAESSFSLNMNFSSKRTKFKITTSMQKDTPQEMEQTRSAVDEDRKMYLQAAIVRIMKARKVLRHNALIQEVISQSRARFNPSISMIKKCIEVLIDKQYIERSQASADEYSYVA
Assay: Protac activity against VHL/cullin2/ERalpha in human MCF7 cells assessed as ERalpha degradation by measuring ER protein/GADPH ratio at 1 nM after 4 hrs by Western blot analysis relative to control
Format: cell-based

{"structure_notation": "Cc1ncsc1-c1ccc([C@H](C)NC(=O)[C@@H]2C[C@@H](O)CN2C(=O)[C@@H](NC(=O)CCCCCCCN(CCOc2ccc(C(=O)c3c(-c4ccc(O)cc4)sc4cc(O)ccc34)cc2)C(C)(C)C)C(C)(C)C)cc1", "Ratio": 21}
{"structure_notation": "CCN(CCOc1ccc(C(=O)c2c(-c3ccc(O)cc3)sc3cc(O)ccc23)cc1)CCN1CCN(CCCC(=O)N[C@H](C(=O)N2C[C@H](O)C[C@H]2C(=O)N[C@@H](C)c2ccc(-c3scnc3C)cc2)C(C)(C)C)CC1", "Ratio": 208}
{"structure_notation": "CCN(CCCC#Cc1cnn(CCC(=O)N[C@H](C(=O)N2C[C@H](O)C[C@H]2C(=O)N[C@@H](C)c2ccc(-c3scnc3C)cc2)C(C)(C)C)c1)CCOc1ccc(C(=O)c2c(-c3ccc(O)cc3)sc3cc(O)ccc23)cc1", "Ratio": 70}
{"structure_notation": "Cc1ncsc1-c1ccc([C@H](C)NC(=O)[C@@H]2C[C@@H](O)CN2C(=O)[C@@H](NC(=O)CCCCCCCN(CCOc2ccc(C(=O)c3c(-c4ccc(O)cc4)sc4cc(O)ccc34)cc2)C2CC2)C(C)(C)C)cc1", "Ratio": 20}
{"structure_notation": "Cc1ncsc1-c1ccc([C@H](C)NC(=O)[C@@H]2C[C@@H](O)CN2C(=O)[C@@H](NC(=O)CCCCCCCN(C)CCOc2ccc(C(=O)c3c(-c4ccc(O)cc4)sc4cc(O)ccc34)cc2)C(C)(C)C)cc1", "Ratio": 27}

----------
Measured Ratio, listed per entry for reference.
Molecular target: von Hippel-Lindau disease tumor suppressor/Estrogen receptor/Cullin-2 (Homo sapiens, UniProt P03372+P40337+Q13617)
Test: Protac activity against VHL/cullin2/ERalpha in human MCF7 cells assessed as ERalpha degradation by measuring ER protein/GADPH ratio at 10 nM after 4 hrs by Western blot analysis relative to control
Type: cell-based

{"structure_notation": "CCN(CCCCCC(=O)N[C@H](C(=O)N1C[C@H](O)C[C@H]1C(=O)N[C@@H](C)c1ccc(-c2scnc2C)cc1)C(C)(C)C)CCOc1ccc(C(=O)c2c(-c3ccc(O)cc3)sc3cc(O)ccc23)cc1", "Ratio": 66}
{"structure_notation": "CCN(CCCCCCCC(=O)N[C@H](C(=O)N1C[C@H](O)C[C@H]1C(=O)N[C@@H](C)c1ccc(-c2scnc2C)cc1)C(C)(C)C)CCOc1ccc([C@@H]2c3ccc(O)cc3CC[C@@H]2c2ccccc2)cc1", "Ratio": 5}
{"structure_notation": "CCN(CCCC#Cc1cnn(CCC(=O)N[C@H](C(=O)N2C[C@H](O)C[C@H]2C(=O)N[C@@H](C)c2ccc(-c3scnc3C)cc2)C(C)(C)C)c1)CCOc1ccc(C(=O)c2c(-c3ccc(O)cc3)sc3cc(O)ccc23)cc1", "Ratio": 0.5}
{"structure_notation": "CCN(CCOCCOCCC(=O)N[C@H](C(=O)N1C[C@H](O)C[C@H]1C(=O)N[C@@H](C)c1ccc(-c2scnc2C)cc1)C(C)(C)C)CCOc1ccc(C(=O)c2c(-c3ccc(O)cc3)sc3cc(O)ccc23)cc1", "Ratio": 2.4}
{"structure_notation": "CCNCCc1ccc(CN(CC)c2cc(OC)ccc2[C@@H]2CCc3cc(O)ccc3C2)cc1", "Ratio": 171}
{"structure_notation": "Cc1ncsc1-c1ccc([C@H](C)NC(=O)[C@@H]2C[C@@H](O)CN2C(=O)[C@@H](NC(=O)CCCCCCCN(CCOc2ccc(C(=O)c3c(-c4ccc(O)cc4)sc4cc(O)ccc34)cc2)C2CCCC2)C(C)(C)C)cc1", "Ratio": 0.3}
{"structure_notation": "CCN(CCOc1ccc(C(=O)c2c(-c3ccc(O)cc3)sc3cc(O)ccc23)cc1)CCC1CCN(CCCC(=O)N[C@H](C(=O)N2C[C@H](O)C[C@H]2C(=O)N[C@@H](C)c2ccc(-c3scnc3C)cc2)C(C)(C)C)CC1", "Ratio": 91}
{"structure_notation": "Cc1ncsc1-c1ccc([C@H](C)NC(=O)[C@@H]2C[C@@H](O)CN2C(=O)[C@@H](NC(=O)CCCCCCCN(CCOc2ccc(C(=O)c3c(-c4ccc(O)cc4)sc4cc(O)ccc34)cc2)C(C)C)C(C)(C)C)cc1", "Ratio": 0.5}
{"structure_notation": "CCN(CCCC(=O)N[C@H](C(=O)N1C[C@H](O)C[C@H]1C(=O)N[C@@H](C)c1ccc(-c2scnc2C)cc1)C(C)(C)C)CCOc1ccc(C(=O)c2c(-c3ccc(O)cc3)sc3cc(O)ccc23)cc1", "Ratio": 139}
{"structure_notation": "CCN(CCOCCOCCOCCC(=O)N[C@H](C(=O)N1C[C@H](O)C[C@H]1C(=O)N[C@@H](C)c1ccc(-c2scnc2C)cc1)C(C)(C)C)CCOc1ccc(C(=O)c2c(-c3ccc(O)cc3)sc3cc(O)ccc23)cc1", "Ratio": 0.6}
{"structure_notation": "CCN(CCCCCCCC(=O)N[C@H](C(=O)N1C[C@H](O)C[C@H]1C(=O)N[C@@H](C)c1ccc(C(C)C)cc1)C(C)(C)C)CCOc1ccc(C(=O)c2c(-c3ccc(O)cc3)sc3cc(O)ccc23)cc1", "Ratio": 109}
{"structure_notation": "CCN(CCCCCCC(=O)N[C@H](C(=O)N1C[C@H](O)C[C@H]1C(=O)N[C@@H](C)c1ccc(-c2scnc2C)cc1)C(C)(C)C)CCOc1ccc(C(=O)c2c(-c3ccc(O)cc3)sc3cc(O)ccc23)cc1", "Ratio": 8}
{"structure_notation": "Cc1ncsc1-c1ccc([C@H](C)NC(=O)[C@@H]2C[C@@H](O)CN2C(=O)[C@@H](NC(=O)CCCCCCCN(CCOc2ccc(C(=O)c3c(-c4ccc(O)cc4)sc4cc(O)ccc34)cc2)C2CCC2)C(C)(C)C)cc1", "Ratio": 4}
{"structure_notation": "Cc1ncsc1-c1ccc([C@H](C)NC(=O)[C@@H]2C[C@@H](O)CN2C(=O)[C@@H](NC(=O)CCCCCCCN(CCOc2ccc(C(=O)c3c(-c4ccc(O)cc4)sc4cc(O)ccc34)cc2)C2CC2)C(C)(C)C)cc1", "Ratio": 0.2}
{"structure_notation": "CCN(CCCCCCCC(=O)N[C@H](C(=O)N1C[C@H](O)C[C@H]1C(=O)N[C@@H](C)c1ccc(C(C)(C)C)cc1)C(C)(C)C)CCOc1ccc(C(=O)c2c(-c3ccc(O)cc3)sc3cc(O)ccc23)cc1", "Ratio": 112}
{"structure_notation": "CCN(CCCCCCCC(=O)N[C@H](C(=O)N1C[C@H](O)C[C@H]1C(=O)N[C@@H](C)c1ccc(-c2scnc2C)cc1)C(C)(C)C)CCOc1ccc(Cn2c(-c3ccc(O)cc3)c(C)c3cc(O)ccc32)cc1", "Ratio": 10}
{"structure_notation": "Cc1ncsc1-c1ccc([C@H](C)NC(=O)[C@@H]2C[C@@H](O)CN2C(=O)[C@@H](NC(=O)CCCCCCCN(CCOc2ccc(C(=O)c3c(-c4ccc(O)cc4)sc4cc(O)ccc34)cc2)C2CCCCC2)C(C)(C)C)cc1", "Ratio": 0.6}
{"structure_notation": "CCN(CCCCCOCC(=O)N[C@H](C(=O)N1C[C@H](O)C[C@H]1C(=O)N[C@@H](C)c1ccc(-c2scnc2C)cc1)C(C)(C)C)CCOc1ccc(C(=O)c2c(-c3ccc(O)cc3)sc3cc(O)ccc23)cc1", "Ratio": 0.3}
{"structure_notation": "CCC(=C(c1ccccc1)c1ccc(OCCN(CC)CCCCCCCC(=O)N[C@H](C(=O)N2C[C@H](O)C[C@H]2C(=O)N[C@@H](C)c2ccc(-c3scnc3C)cc2)C(C)(C)C)cc1)c1ccccc1", "Ratio": 97}

----------
Target: von Hippel-Lindau disease tumor suppressor/Estrogen receptor/Cullin-2 (Homo sapiens, UniProt P03372+P40337+Q13617)
Test: Protac activity against VHL/cullin2/ERalpha in human MCF7 cells assessed as ERalpha degradation by measuring ER protein/GADPH ratio at 1 nM after 4 hrs by Western blot analysis relative to control
Assay type: cell-based
Please use 1 (yes) for Ratio under 30 and 0 (no) for everything else, ties included.

{"structure_notation": "Cc1ncsc1-c1ccc([C@H](C)NC(=O)[C@@H]2C[C@@H](O)CN2C(=O)[C@@H](NC(=O)CCCCCCCN(CCOc2ccc(C(=O)c3c(-c4ccc(O)cc4)sc4cc(O)ccc34)cc2)C(C)C)C(C)(C)C)cc1", "label_value": "1 (yes)"}
{"structure_notation": "CCN(CCCCCCCCC(=O)N[C@H](C(=O)N1C[C@H](O)C[C@H]1C(=O)N[C@@H](C)c1ccc(-c2scnc2C)cc1)C(C)(C)C)CCOc1ccc(C(=O)c2c(-c3ccc(O)cc3)sc3cc(O)ccc23)cc1", "label_value": "1 (yes)"}
{"structure_notation": "CCN(CCCCCCCC(=O)N[C@H](C(=O)N1C[C@H](O)C[C@H]1C(=O)N[C@@H](C)c1ccc(-c2scnc2C)cc1)C(C)(C)C)CCOc1ccc([C@@H]2c3ccc(O)cc3CC[C@@H]2c2ccccc2)cc1", "label_value": "0 (no)"}
{"structure_notation": "CCN(CCCC(=O)N[C@H](C(=O)N1C[C@H](O)C[C@H]1C(=O)N[C@@H](C)c1ccc(-c2scnc2C)cc1)C(C)(C)C)CCOc1ccc(C(=O)c2c(-c3ccc(O)cc3)sc3cc(O)ccc23)cc1", "label_value": "0 (no)"}
{"structure_notation": "CCN(CCCCc1cnn(CC(=O)N[C@H](C(=O)N2C[C@H](O)C[C@H]2C(=O)N[C@@H](C)c2ccc(-c3scnc3C)cc2)C(C)(C)C)c1)CCOc1ccc(C(=O)c2c(-c3ccc(O)cc3)sc3cc(O)ccc23)cc1", "label_value": "0 (no)"}
